# reported ECLU confirmatory assay; entries follow
Target: affinity purified antibody IHuP#002-001-ABL-08
Assay: bridging/competition ADA assay, 10 ug/ml ISV vs labelled ISV
I only need the number, in ECLU, no unit after it.

Example binders with recorded ECLU confirmatory assay:
{"Binder": "SEQ ID NO: 28, Wildtype VHH + A14P + R39Q + K83R + T91Y + Q108L (VHH) VHH: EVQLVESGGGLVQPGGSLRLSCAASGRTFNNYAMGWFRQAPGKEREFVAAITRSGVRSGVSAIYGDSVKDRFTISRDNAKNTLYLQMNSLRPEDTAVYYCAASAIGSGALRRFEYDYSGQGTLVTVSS", "Assay Metric": "ECLU confirmatory assay", "Units Symbol": "ECLU", "Readout Number": 251}
{"Binder": "SEQ ID NO: 25, Wildtype VHH + K83R (VHH) VHH: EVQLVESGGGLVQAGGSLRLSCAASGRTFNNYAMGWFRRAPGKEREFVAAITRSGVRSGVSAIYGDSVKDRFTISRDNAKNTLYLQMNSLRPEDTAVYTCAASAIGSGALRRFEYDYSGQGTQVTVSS", "Assay Metric": "ECLU confirmatory assay", "Units Symbol": "ECLU", "Readout Number": 2460}
{"Binder": "SEQ ID NO: 27, Wildtype VHH + A14P + K83R + Q108L (VHH) VHH: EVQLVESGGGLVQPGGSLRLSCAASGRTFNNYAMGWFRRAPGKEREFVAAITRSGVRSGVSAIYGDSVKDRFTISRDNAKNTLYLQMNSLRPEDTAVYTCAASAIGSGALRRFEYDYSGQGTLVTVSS", "Assay Metric": "ECLU confirmatory assay", "Units Symbol": "ECLU", "Readout Number": 319}

Okay, next one:
Ask: Which value of ECLU confirmatory assay has been reported for SEQ ID NO: 26, Wildtype VHH + Q108L (VHH) VHH: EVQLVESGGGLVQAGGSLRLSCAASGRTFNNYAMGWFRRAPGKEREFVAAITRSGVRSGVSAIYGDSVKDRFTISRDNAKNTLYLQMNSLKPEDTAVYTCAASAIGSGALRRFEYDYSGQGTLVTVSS in the records?
Reply: 2530

Source: patent US20200216532A1
